- TARGET_DESC: T1, human EpCAM expressed on cells (CHO, Colo205, 293) (human, UniProt P16422 24-314)
- T1 construct: whole, on cells; also called CHO cells expressing human EpCAM; Colo205 cells expressing human EpCAM
- T1 sequence (looked up): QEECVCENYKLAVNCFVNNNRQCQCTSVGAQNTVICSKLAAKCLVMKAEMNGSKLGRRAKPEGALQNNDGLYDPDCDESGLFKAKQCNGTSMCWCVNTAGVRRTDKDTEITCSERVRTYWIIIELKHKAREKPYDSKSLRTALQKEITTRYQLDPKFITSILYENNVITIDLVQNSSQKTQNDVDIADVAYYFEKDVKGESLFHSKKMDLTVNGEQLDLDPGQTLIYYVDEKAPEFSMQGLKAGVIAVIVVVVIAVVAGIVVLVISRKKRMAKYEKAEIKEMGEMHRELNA
- PROCEDURE_SUMMARY: FACS on 293 cells expressing human EpCAM, pH 6.0
Let's look at some binders and their measured EC50.
QUANTITY_KIND: EC50 (µg/mL)

BAP-105.4-02-01 (antibody, V domains shown, Humanized) VH: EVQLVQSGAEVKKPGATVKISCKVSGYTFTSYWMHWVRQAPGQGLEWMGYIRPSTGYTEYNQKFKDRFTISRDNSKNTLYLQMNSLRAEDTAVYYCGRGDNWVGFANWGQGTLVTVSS VL: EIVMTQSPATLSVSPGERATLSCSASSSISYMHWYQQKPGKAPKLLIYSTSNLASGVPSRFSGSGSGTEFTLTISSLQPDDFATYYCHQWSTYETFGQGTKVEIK	0.215
BAP-105.4-01-05 (antibody, V domains shown, Humanized) VH: EVQLVQSGAEVKKPGATVKISCKVSGYTFTSYWMHWIRQPPGKGLEWIGYIRPSTGYTEYNQKFKDRFTISRDNSKNTLYLQMNSLRAEDTAVYYCGRGDNWVGFANWGQGTLVTVSS VL: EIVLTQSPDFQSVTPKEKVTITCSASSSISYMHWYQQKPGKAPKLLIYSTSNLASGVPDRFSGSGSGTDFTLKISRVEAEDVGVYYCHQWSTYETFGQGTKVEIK	0.129
BAP-105-01-01 (antibody, V domains shown, Non-conditionally active control; also called template antibody (WT)) VH: QVQLQQSGAELAKPGASVKVSCKASGYTFTSYWMHWVKQRPGQGLEWIGYIRPSTGYTEYNQKFKDKATLTADKSSSTAYMQLSSLTFEDSAVYYCGRGDNWVGFANWGQGTLVTVSA VL: QIVLTQSPAIMSASLGEEIALTCSASSSISYMHWYQQKSGTSPKLLIYSTSNLASGVPSRFSGSGSGTFYSLTISSVEAEDAADYFCHQWSTYHTFGSGTKLEIK	0.092
BAP-105.4-01-02 (antibody, V domains shown, Humanized) VH: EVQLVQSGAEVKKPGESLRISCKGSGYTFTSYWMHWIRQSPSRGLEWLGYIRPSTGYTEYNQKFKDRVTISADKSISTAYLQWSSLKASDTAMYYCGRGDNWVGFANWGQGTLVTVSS VL: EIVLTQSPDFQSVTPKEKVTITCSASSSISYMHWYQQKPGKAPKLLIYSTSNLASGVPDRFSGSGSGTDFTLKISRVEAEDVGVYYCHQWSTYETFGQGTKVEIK	0.116
